protocol.notes: xn = mol fraction of the nth substance listed
setup.conditions: 298 K; 101 kPa; Liquid; x1 = 0
The reader will find reported binary diffusion coefficient values listed item by item below.
Return type: number; implicit unit m2/s.

Take a look at these entries with their results.
CCCC[n+]1ccn(C)c1.O=S(=O)([N-]S(=O)(=O)C(F)(F)F)C(F)(F)F + CC#N : 2.22e-09
CCn1cc[n+](C)c1.O=S(=O)([N-]S(=O)(=O)C(F)(F)F)C(F)(F)F + CO : 1.6e-09
CCCC[n+]1ccn(C)c1.O=S(=O)([N-]S(=O)(=O)C(F)(F)F)C(F)(F)F + CO : 1.48e-09
CCCCCC[n+]1ccn(C)c1.O=S(=O)([N-]S(=O)(=O)C(F)(F)F)C(F)(F)F + O : 8.3e-10
CCCCn1cc[n+](C)c1.[Cl-] [1-butyl-3-methylimidazolium chloride] + O : 1.18e-09
CCCCn1cc[n+](C)c1.F[B-](F)(F)F [1-butyl-3-methylimidazolium tetrafluoroborate] + O : 1.14e-09

For reference, reported binary diffusion coefficient for CCn1cc[n+](C)c1.O=S(=O)([N-]S(=O)(=O)C(F)(F)F)C(F)(F)F + O stands at 8.9e-10

The compound listed as CCCCCCCCn1cc[n+](C)c1.O=S(=O)([N-]S(=O)(=O)C(F)(F)F)C(F)(F)F + CC#N shows binary diffusion coefficient equal to 2e-09

So, CCCC[n+]1ccn(C)c1.O=S(=O)([N-]S(=O)(=O)C(F)(F)F)C(F)(F)F + O ? Its binary diffusion coefficient was 8.5e-10

Record CCCCCCCCn1cc[n+](C)c1.O=S(=O)([N-]S(=O)(=O)C(F)(F)F)C(F)(F)F + CO . Reported binary diffusion coefficient: 1.32e-09

CCCCCCCCn1cc[n+](C)c1.O=S(=O)([N-]S(=O)(=O)C(F)(F)F)C(F)(F)F + O has a reported binary diffusion coefficient of 8.1e-10

---

protocol.notes: xn = mol fraction of the nth substance listed
setup.conditions: 333 K; 101 kPa; Liquid; x1 = 0
// reported binary diffusion coefficient for each item listed
# value in m2/s; strip the unit string

CCCC[n+]1ccn(C)c1.O=S(=O)([N-]S(=O)(=O)C(F)(F)F)C(F)(F)F + CC#N : 3.45e-09
CCCCCCCCn1cc[n+](C)c1.O=S(=O)([N-]S(=O)(=O)C(F)(F)F)C(F)(F)F + CC#N : 2.86e-09
CCCCCCCCn1cc[n+](C)c1.O=S(=O)([N-]S(=O)(=O)C(F)(F)F)C(F)(F)F + CO : 2.12e-09
CCCCn1cc[n+](C)c1.[Cl-] [1-butyl-3-methylimidazolium chloride] + O : 2.4e-09
CCCC[n+]1ccn(C)c1.O=S(=O)([N-]S(=O)(=O)C(F)(F)F)C(F)(F)F + CO : 2.43e-09

Lab note: next compound to report on.
Record CCn1cc[n+](C)c1.O=S(=O)([N-]S(=O)(=O)C(F)(F)F)C(F)(F)F + CC#N , field binary diffusion coefficient: 3.48e-09

---

protocol.notes: xn = mol fraction of the nth substance listed
setup.conditions: 303 K; 101 kPa; Liquid; x1 = 0
metric.name: binary diffusion coefficient (m2/s)
# value in m2/s; strip the unit string

Use the examples below as a reference point.
CCCCn1cc[n+](C)c1.F[B-](F)(F)F [1-butyl-3-methylimidazolium tetrafluoroborate] + O : 1.28e-09
CCCCn1cc[n+](C)c1.[Cl-] [1-butyl-3-methylimidazolium chloride] + O : 1.32e-09
CCn1cc[n+](C)c1.O=S(=O)([N-]S(=O)(=O)C(F)(F)F)C(F)(F)F + O : 9.8e-10
CCCCCC[n+]1ccn(C)c1.O=S(=O)([N-]S(=O)(=O)C(F)(F)F)C(F)(F)F + O : 9e-10
CCCCCCCCn1cc[n+](C)c1.O=S(=O)([N-]S(=O)(=O)C(F)(F)F)C(F)(F)F + O : 8.7e-10

Consider now this further compound.
Documented binary diffusion coefficient of CCCC[n+]1ccn(C)c1.O=S(=O)([N-]S(=O)(=O)C(F)(F)F)C(F)(F)F + O : 9.6e-10

---

protocol.notes: xn = mol fraction of the nth substance listed
setup.conditions: 298 K; 101 kPa; Liquid; x1 = 0
Below, each entry is listed with its recorded binary diffusion coefficient.
All answers are understood in m2/s, so give the number only.

Observe how each entry below is paired with its result.
CCn1cc[n+](C)c1.O=S(=O)([N-]S(=O)(=O)C(F)(F)F)C(F)(F)F + CC#N : 2.29e-09
CCCCCC[n+]1ccn(C)c1.O=S(=O)([N-]S(=O)(=O)C(F)(F)F)C(F)(F)F + CO : 1.34e-09

Here is another compound to look at.
Entry CCCCCC[n+]1ccn(C)c1.O=S(=O)([N-]S(=O)(=O)C(F)(F)F)C(F)(F)F + CC#N , binary diffusion coefficient reported as 2.1e-09

Reference for the values: the NIST ThermoML archive (doi:10.1021/je800817b)
